Data origin: ChEMBL document CHEMBL1641432

protocolDescription: Solubility of the compound at pH 6.8 after 2 hrs
Assay type: physicochemical
appliedConditions: buffer
measurementType: solubility at 2 h

chemicalStructure: Cc1ccc(-c2c(CC(=O)N3CCC[C@H]3C(N)=O)c(C)nc(CC(C)C)c2CN)cc1.Cl.Cl
dataValue: 71 µg/mL

###

protocolDescription: Bioavailability in dog at 0.1 mg/kg, iv and 1 mg/kg, po by LC/MS/MS analysis
Type: ADME, organism-based, Canis lupus familiaris
appliedConditions: in vivo

chemicalStructure: Cc1ccc(-c2c(CC(=O)N3CCC[C@H]3C(N)=O)c(C)nc(CC(C)C)c2CN)cc1.Cl.Cl
bioavailability, %: 21.3
